target-desc: Dipeptidyl peptidase 4 (Homo sapiens) (UniProt P27487)
Sequence (P27487 whole entry, looked up, the tested form may be a part): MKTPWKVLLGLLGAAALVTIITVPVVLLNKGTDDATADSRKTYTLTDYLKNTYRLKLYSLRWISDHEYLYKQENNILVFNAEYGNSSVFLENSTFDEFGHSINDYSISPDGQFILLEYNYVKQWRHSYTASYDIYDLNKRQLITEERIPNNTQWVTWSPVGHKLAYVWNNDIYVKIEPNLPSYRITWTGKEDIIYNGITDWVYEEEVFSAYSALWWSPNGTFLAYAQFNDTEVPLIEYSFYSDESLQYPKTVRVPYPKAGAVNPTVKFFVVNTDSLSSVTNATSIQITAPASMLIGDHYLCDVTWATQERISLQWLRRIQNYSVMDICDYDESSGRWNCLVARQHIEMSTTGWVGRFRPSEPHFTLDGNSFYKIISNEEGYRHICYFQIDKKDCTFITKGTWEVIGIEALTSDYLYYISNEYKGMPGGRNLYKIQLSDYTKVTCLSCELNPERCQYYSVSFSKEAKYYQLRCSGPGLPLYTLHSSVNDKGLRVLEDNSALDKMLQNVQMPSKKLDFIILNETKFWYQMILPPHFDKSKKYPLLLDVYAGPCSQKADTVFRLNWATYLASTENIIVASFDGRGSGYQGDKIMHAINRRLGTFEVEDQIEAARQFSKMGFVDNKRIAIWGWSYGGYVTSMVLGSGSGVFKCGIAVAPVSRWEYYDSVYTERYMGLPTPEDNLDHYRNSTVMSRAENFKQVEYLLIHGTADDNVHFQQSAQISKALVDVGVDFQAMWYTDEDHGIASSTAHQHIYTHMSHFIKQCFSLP
assay-summary: Inhibition of recombinant human C-terminal His-tagged DPP-4 (29 to 766 residues) expressed in Sf9 insect cells at 10 ug/ml using dipeptidyl peptidase […] as substrate incubated for 10 mins followed by substrate addition measured after 40 mins by fluorescence assay relative to control
inhibition listing for selected compounds.
Provide the reading as a plain figure in %.

Below are worked cases with known answers.
* COC(=O)[C@@H](NC(=O)OCc1ccccc1)c1cccc(NC(=O)CN2C(=O)c3ccccc3C2=O)c1 | 2.17
* Cc1cc(NS(=O)(=O)c2ccc(NCC(=O)Nc3cccc([C@H](NC(=O)OCc4ccccc4)C(=O)O)c3)cc2)no1 | 11.1
* O=C(Cn1cnc2ccccc21)Nc1cccc([C@H](NC(=O)OCc2ccccc2)C(=O)O)c1 | -0.74
* COC(=O)[C@@H](NC(=O)OCc1ccccc1)c1cccc(NC(=O)Cn2cnc3ccccc32)c1 | -0.31

Here's the next entry for you.
Param item = "COC(=O)[C@@H](NC(=O)OCc1ccccc1)c1cccc(NC(=O)CCl)c1" ; retrieve measured inhibition.
16.1

----------
Species: Rattus norvegicus
assay-summary: Inhibition of rat small intestine alpha-glucosidase at 10 ug/ml using maltose/glucose as substrate incubated for 10 mins followed by substrate addition measured after 10 mins relative to control
inhibition listing for selected molecules.
Provide the reading as a plain figure in %.

Param item = "COC(=O)[C@@H](NC(=O)OCc1ccccc1)c1cccc(NC(=O)Cn2cnc3ccccc32)c1" ; retrieve measured inhibition.
2.91

----------
target-desc: Peroxisome proliferator-activated receptor gamma (Homo sapiens) (UniProt P37231)
Sequence (whole entry): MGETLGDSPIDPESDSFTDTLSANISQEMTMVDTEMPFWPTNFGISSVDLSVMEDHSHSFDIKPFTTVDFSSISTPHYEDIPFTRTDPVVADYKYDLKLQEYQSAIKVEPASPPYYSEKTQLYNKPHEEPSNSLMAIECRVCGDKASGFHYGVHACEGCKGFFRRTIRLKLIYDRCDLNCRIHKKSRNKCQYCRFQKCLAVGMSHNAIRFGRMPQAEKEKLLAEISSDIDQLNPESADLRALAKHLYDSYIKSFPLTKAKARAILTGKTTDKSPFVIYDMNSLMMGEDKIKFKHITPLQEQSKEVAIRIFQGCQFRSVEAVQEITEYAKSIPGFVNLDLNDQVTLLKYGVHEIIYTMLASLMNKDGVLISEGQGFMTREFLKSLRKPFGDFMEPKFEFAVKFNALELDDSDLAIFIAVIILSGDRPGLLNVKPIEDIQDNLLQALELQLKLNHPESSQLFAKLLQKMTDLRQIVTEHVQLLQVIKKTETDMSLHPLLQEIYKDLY
assay-summary: Agonist activity at PPARgamma in human HepG2 cells assessed as activation of PPRE at 10 ug/ml incubated for 24 hrs by dual luciferase reporter gene assay relative to control
Assay type: cell-based
result-type: Activity (%)
Provide the reading as a plain figure in %.

Below are worked cases with known answers.
- COC(=O)[C@@H](NC(=O)OCc1ccccc1)c1cccc(NC(=O)CNc2ccc(S(=O)(=O)Nc3cc(C)on3)cc2)c1: 18.9
- CCOC(=O)[C@@H](NC(=O)OCc1ccccc1)c1cccc(NC(=O)CCl)c1: -24.8

Here's the next entry for you.
Param item = "COC(=O)[C@@H](NC(=O)OCc1ccccc1)c1cccc(NC(=O)Cn2nnnc2C)c1" ; retrieve measured Activity.
14.4
